Assay: Growth inhibition of human NCI60 cells
Type: functional
parameter.measured: GI50 (nM)
Give bare numbers, in nM.

See these solved cases before continuing.
>  <molecule>
COc1cccc(-c2noc(Nc3ccc4c(c3)OCO4)n2)c1

>  <unit.of.measure>
nM

>  <GI50>
1230

$$$$
>  <molecule>
COc1ccc(Nc2nc(-c3ccccc3F)no2)cc1

>  <unit.of.measure>
nM

>  <GI50>
204

$$$$
>  <molecule>
Cc1ccc(Nc2nc(-c3ccccc3F)no2)cc1

>  <unit.of.measure>
nM

>  <GI50>
603

$$$$
>  <molecule>
CCOc1ccc(Nc2nc(-c3cccc(OC)c3)no2)cc1

>  <unit.of.measure>
nM

>  <GI50>
851

$$$$
>  <molecule>
Cc1ccc(Nc2nc(-c3ccccc3F)no2)cc1F

>  <unit.of.measure>
nM

>  <GI50>
851

$$$$

Quick one: give me GI50 for each item below, same order please.
1. CCc1ccc(Nc2nc(-c3cc(OC)ccc3OC)no2)cc1
2. COc1cccc(-c2noc(Nc3ccc(C)cc3)n2)c1OC
3. COc1cccc(-c2noc(Nc3ccc(OC)c(Cl)c3)n2)c1
4. COc1ccc(/C=C\c2cc(OC)c(OC)c(OC)c2)cc1O [COMBRETASTATIN A4]

575
2630
562
14.8

Quick one: give me GI50 for each item below, same order please.
1. COc1ccc(Nc2nc(-c3cccc(OC)c3OC)no2)cc1
2. COc1ccc(OC)c(-c2noc(Nc3ccc4c(c3)OCO4)n2)c1

245
6460

====

Target: Tubulin
Test: Inhibition of tubulin (unknown origin) assembly after 20 mins by turbidimetric analysis
Record form. Attribute: IC50. Fill in for each entry.
Answers are plain numbers, in nM.

See these solved cases before continuing.
>  <structure.as.smiles>
COc1cccc(-c2noc(Nc3ccc4c(c3)OCCO4)n2)c1

>  <IC50 (nM)>
1900

$$$$
>  <structure.as.smiles>
Cc1ccc(Nc2nc(-c3ccccc3F)no2)cc1

>  <IC50 (nM)>
1600

$$$$
>  <structure.as.smiles>
COc1ccc(Nc2nc(-c3ccccc3)no2)cc1Cl

>  <IC50 (nM)>
1700

$$$$
>  <structure.as.smiles>
CCc1ccc(Nc2nc(-c3cccc(OC)c3)no2)cc1

>  <IC50 (nM)>
1600

$$$$
>  <structure.as.smiles>
CCc1ccc(Nc2nc(-c3cc(OC)ccc3OC)no2)cc1

>  <IC50 (nM)>
1800

$$$$

Which value of IC50 has been reported for CCOc1ccc(Nc2nc(-c3cccc(OC)c3)no2)cc1 in the records?
1600

====

Target: Tubulin (Homo sapiens) (UniProt P68371+Q9H4B7+P0DPH7+P68366+Q13509+Q71U36+P04350+Q3ZCM7+P07437+P68363+Q9BQE3+Q6PEY2+Q13885+Q9BVA1+Q9BUF5)
Conditions: at 5 µM
Description: Displacement of [3H]colchicine from tubulin (unknown origin) at 5 uM after 10 mins
Active and inactive are the calls of the source. The rule behind the calls is not given here.
parameter.measured: inhibition

See these solved cases before continuing.
>  <structure.as.smiles>
COc1ccc(Nc2nc(-c3ccccc3F)no2)cc1

>  <result>
91%

$$$$
>  <structure.as.smiles>
CCOc1ccc(Nc2nc(-c3ccccc3)no2)cc1

>  <result>
82%

$$$$
>  <structure.as.smiles>
CCc1ccc(Nc2nc(-c3ccccc3F)no2)cc1

>  <result>
73%

$$$$
>  <structure.as.smiles>
COc1ccc(OC)c(-c2noc(Nc3ccc4c(c3)OCO4)n2)c1

>  <result>
52%

$$$$
>  <structure.as.smiles>
COc1cccc(-c2noc(Nc3ccc4c(c3)OCO4)n2)c1

>  <result>
76%

$$$$

Quick one: give me inhibition for each item below, same order please.
1. COc1ccc(Nc2nc(-c3cccc(OC)c3)no2)cc1
2. COc1cccc(-c2noc(Nc3ccc(OC)c(Cl)c3)n2)c1
3. CCOc1ccc(Nc2nc(-c3cccc(OC)c3)no2)cc1
4. COc1ccc(Nc2nc(-c3ccccc3)no2)cc1Cl
5. COc1ccc(OC)c(-c2noc(Nc3ccc4c(c3)OCCO4)n2)c1

90%
73%
78%
80%
50%

Quick one: give me inhibition for each item below, same order please.
1. COc1cccc(-c2noc(Nc3ccc4c(c3)OCCO4)n2)c1
2. Cc1ccc(Nc2nc(-c3ccccc3F)no2)cc1F
3. CCc1ccc(Nc2nc(-c3cc(OC)ccc3OC)no2)cc1
4. COc1ccc(Nc2nc(-c3cccc(OC)c3OC)no2)cc1
5. Cc1ccc(Nc2nc(-c3ccccc3)no2)cc1

76%
81%
65%
68%
88%

Quick one: give me inhibition for each item below, same order please.
1. CCOC(=O)c1cccc(Nc2nc(-c3ccc(OC)cc3)no2)c1
2. CCOc1ccc(Nc2nc(-c3cccc(OC)c3OC)no2)cc1
3. Cc1ccc(Nc2nc(-c3ccccc3F)no2)cc1
4. CCOc1ccc(Nc2nc(-c3ccccc3F)no2)cc1
5. Fc1ccccc1Nc1nc(-c2ccccc2)no1
6. CCc1ccc(Nc2nc(-c3cccc(OC)c3)no2)cc1

["inactive", "56%", "85%", "76%", "inactive", "81%"]

Quick one: give me inhibition for each item below, same order please.
1. COc1cccc(-c2noc(Nc3ccc(C)cc3)n2)c1OC
2. COc1ccc(OC)c(Nc2nc(-c3cccc(OC)c3OC)no2)c1
3. COc1ccc(OC)c(-c2noc(Nc3ccc(C)c(F)c3)n2)c1
4. COc1cccc(-c2noc(Nc3ccc(C)cc3)n2)c1

1. 52%
2. inactive
3. 53%
4. 85%
